biological target: Protein cereblon/Androgen receptor (Homo sapiens, UniProt P10275+Q96SW2); test: PROTAC activity at CRBN/AR in human VCaP cells assessed as induction of AR degradation at 0.1 uM incubated for 24 hrs by Western blot analysis relative to control; assay type: cell-based
Sequence (P10275 whole entry, looked up): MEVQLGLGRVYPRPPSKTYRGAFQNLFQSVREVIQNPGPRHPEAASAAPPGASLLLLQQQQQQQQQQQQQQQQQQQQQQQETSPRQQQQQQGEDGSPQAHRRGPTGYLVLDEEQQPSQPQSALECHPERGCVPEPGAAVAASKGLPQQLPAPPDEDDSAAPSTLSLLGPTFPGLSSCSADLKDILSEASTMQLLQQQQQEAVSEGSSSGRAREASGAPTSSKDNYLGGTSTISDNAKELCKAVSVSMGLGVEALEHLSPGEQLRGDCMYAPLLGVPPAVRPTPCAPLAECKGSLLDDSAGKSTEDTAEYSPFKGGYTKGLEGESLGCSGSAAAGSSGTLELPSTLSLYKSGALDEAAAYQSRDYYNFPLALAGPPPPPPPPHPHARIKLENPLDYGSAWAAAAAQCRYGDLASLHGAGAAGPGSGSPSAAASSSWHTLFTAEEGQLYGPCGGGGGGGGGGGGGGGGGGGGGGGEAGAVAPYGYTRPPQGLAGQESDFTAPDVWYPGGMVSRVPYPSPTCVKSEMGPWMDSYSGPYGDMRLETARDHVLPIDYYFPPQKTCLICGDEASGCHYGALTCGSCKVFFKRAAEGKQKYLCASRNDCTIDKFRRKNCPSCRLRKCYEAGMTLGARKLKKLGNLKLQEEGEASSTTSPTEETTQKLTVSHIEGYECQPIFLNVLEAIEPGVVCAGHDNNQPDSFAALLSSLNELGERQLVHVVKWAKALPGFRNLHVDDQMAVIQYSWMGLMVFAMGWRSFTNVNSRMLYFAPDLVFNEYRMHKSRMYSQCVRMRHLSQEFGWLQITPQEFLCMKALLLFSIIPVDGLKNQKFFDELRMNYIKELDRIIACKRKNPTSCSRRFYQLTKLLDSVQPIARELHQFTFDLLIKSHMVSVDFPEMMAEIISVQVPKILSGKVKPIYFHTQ
Sequence (Q96SW2 whole entry, looked up): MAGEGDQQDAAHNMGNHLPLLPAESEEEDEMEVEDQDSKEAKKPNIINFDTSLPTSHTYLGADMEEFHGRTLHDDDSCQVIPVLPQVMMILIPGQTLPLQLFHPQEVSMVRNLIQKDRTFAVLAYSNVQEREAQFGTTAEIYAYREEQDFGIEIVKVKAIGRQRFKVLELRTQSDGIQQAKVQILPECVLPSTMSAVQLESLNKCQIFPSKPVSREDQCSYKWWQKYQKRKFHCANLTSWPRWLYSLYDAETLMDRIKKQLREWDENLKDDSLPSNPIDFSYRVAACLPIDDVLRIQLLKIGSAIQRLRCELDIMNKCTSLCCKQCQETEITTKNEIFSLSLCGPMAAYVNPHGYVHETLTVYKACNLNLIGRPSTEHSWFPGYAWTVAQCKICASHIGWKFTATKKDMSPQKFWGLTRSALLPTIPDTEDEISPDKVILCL
Quick list: Activity per entry.
Express your answer as a number followed by its unit.

Observe how each entry below is paired with its result.
COc1ccc(C(C)(C)c2cc(Cl)c(OCC3CCN(C(=O)CCCCCNc4ccc5c(c4)C(=O)N(C4CCC(=O)N(C)C4=O)C5=O)CC3)c(C#N)c2)cc1 (stereo not given) | 14%
CC(C)(c1ccc(OCC2CCOC2)cc1)c1cc(Cl)c(OCC2CCN(C(=O)CCCCCNc3ccc4c(c3)C(=O)N(C3CCC(=O)NC3=O)C4=O)CC2)c(C#N)c1 (stereo not given) | 85.1%
CC(C)(c1ccc(OCC2CCN(C(=O)CCCCCNc3ccc4c(c3)C(=O)N(C3CCC(=O)NC3=O)C4=O)CC2)cc1)c1ccc(OC[C@H](O)CCl)cc1 (stereo not given in full) | 92.2%
CC(C)(c1ccc(OCC2CN(S(C)(=O)=O)C2)cc1)c1cc(Cl)c(OCC2CCN(C(=O)CCCCCNc3ccc4c(c3)C(=O)N(C3CCC(=O)NC3=O)C4=O)CC2)c(C#N)c1 (stereo not given) | 75.6%

Task item: Consider the compound shown here: COc1ccc(C(C)(C)c2cc(Cl)c(OCC3CCN(C(=O)CCCCCNc4ccc5c(c4)C(=O)N(C4CCC(=O)NC4=O)C5=O)CC3)c(Cl)c2)cc1 (stereo not given) What is its recorded Activity?
Reply: 69.8%

###

molecular target: Protein cereblon/Androgen receptor (Homo sapiens, UniProt P10275+Q96SW2); assay: PROTAC activity at CRBN/AR in human VCaP cells assessed as induction of AR degradation at 1 uM incubated for 24 hrs by Western blot analysis relative to control; format: cell-based
Quick list: Activity per entry.

Task item: Consider the molecule shown here: CC(C)(c1ccc(OCC2CCN(C(=O)CCCCOc3ccc4c(c3)C(=O)N(C3CCC(=O)NC3=O)C4=O)CC2)cc1)c1ccc(OC[C@H](O)CCl)cc1 (stereo partly specified) What is its recorded Activity?
Reply: < 5%

Task item: Consider the molecule shown here: CC(C)(c1ccc(OCC2CCN(C(=O)CCCCCNc3cccc4c3C(=O)N(C3CCC(=O)NC3=O)C4=O)CC2)cc1)c1ccc(OC[C@H](O)CCl)cc1 (stereo partly specified) What is its recorded Activity?
Reply: < 5%

Task item: Consider the molecule shown here: CC(C)(c1ccc(OCC2CCN(C3CN(C(=O)CCCNc4ccc5c(c4)C(=O)N(C4CCC(=O)NC4=O)C5=O)C3)CC2)cc1)c1ccc(OC[C@H](O)CCl)cc1 (stereo partly specified) What is its recorded Activity?
Reply: 6.8%

Task item: Consider the molecule shown here: CC(C)(c1ccc(OCC2CCN(C(=O)CCCCCCCNc3ccc4c(c3)C(=O)N(C3CCC(=O)NC3=O)C4=O)CC2)cc1)c1ccc(OC[C@H](O)CCl)cc1 (stereo partly specified) What is its recorded Activity?
Reply: 4.9%

Task item: Consider the molecule shown here: CC(C)(c1ccc(OCC2CCN(C(=O)CCCCCCNc3cccc4c3C(=O)N(C3CCC(=O)NC3=O)C4=O)CC2)cc1)c1ccc(OC[C@H](O)CCl)cc1 (stereo partly specified) What is its recorded Activity?
Reply: < 5%

Task item: Consider the molecule shown here: CC(C)(c1ccc(OCC2CCN(C(=O)CCCCCNc3ccc4c(c3)C(=O)N(C3CCC(=O)NC3=O)C4=O)CC2)cc1)c1ccc(OC[C@H](O)CCl)cc1 (stereo partly specified) What is its recorded Activity?
Reply: 42.5%
